melting point values by entry

# compound, result
records = [
    ("O=S1(=O)NCCOc2ccc(Br)cc21", "129 °C"),
    ("CC(C)(C)c1ccc(S(=O)(=O)C[N+](=O)[O-])cc1", "90 to 91 °C"),
    ("COc1cc(Oc2cccc3c2NC(=O)C3SC)cc(OC)c1OC (stereo not drawn)", "155 to 158 °C"),
]

Return melting point (reported value) for this compound: O=C1c2ccncc2C(=O)c2c(F)ccc(F)c21
197 to 199 °C

Return melting point (reported value) for this compound: CC(=O)NNC(=N)c1ncc([N+](=O)[O-])n1C
294 °C

Return melting point (reported value) for this compound: C=CCC(Cc1ccc(OC)c(OCCc2ccccc2)c1)NC(=O)OC(C)(C)C (stereo not drawn)
94.5 to 95.3 °C

Return melting point (reported value) for this compound: Cn1nc(-c2cnc(N)nc2-c2ccco2)ccc1=O
234 °C

Return melting point (reported value) for this compound: O=C(O)C1=CSCCO1
144 °C

Return melting point (reported value) for this compound: CC(C)c1c(Sc2ccccc2)n(CC2CC=CC2)c(=O)[nH]c1=O
131 to 134 °C

Return melting point (reported value) for this compound: CCOC(=O)C1=C(N)N=C(SCC)C(C(=O)OCC)C1c1cccc(C#N)c1 (stereo not drawn)
153 °C

Return melting point (reported value) for this compound: CC1(C)C(=O)Nc2cc3[nH]cnc3cc21
278 to 280 °C

Return melting point (reported value) for this compound: CC(=O)c1c(-c2ccccc2)sc(-c2ccncc2)c1C
111 to 112 °C

Return melting point (reported value) for this compound: CCN(C(=O)OCc1ccccc1)c1cc(Cl)c2c(c1)C(c1ccccc1F)=NC(C)(C)C(=O)N2C
150 to 151 °C

Return melting point (reported value) for this compound: CC(C)(C)[Si](C)(C)Oc1ccc(-c2ccccc2C=C2SC(=O)NC2=O)cc1C12CC3CC(CC(C3)C1)C2
277 to 278 °C

Return melting point (reported value) for this compound: O=C(O)Cc1ccc2c(c1)CCCOO2
99 to 101 °C

Return melting point (reported value) for this compound: CCOC(=O)CN(C(=O)C(F)(F)F)C(NC(C)C)P(=O)(O)OSCC (stereo not drawn)
85 to 87 °C

Return melting point (reported value) for this compound: Cc1cc(NC(=O)c2cc(C#N)cc(C)n2)ccn1
302 °C

Return melting point (reported value) for this compound: c1ccc(N2CCN(c3ccccc3)C2Oc2ccc(C3N(c4ccccc4)CCN3c3ccccc3)cc2)cc1
218 to 221 °C
